Listed here: items and their measured TGI.
# System: KM12 colon
# experiment: NCI tumour cell line growth inhibition, 48 h
endpoint: TGI

>  <compound>
C=C1C[C@@H]2CC[C@@]34C[C@H]5O[C@H]6[C@@H](O3)[C@H]3O[C@H](CC[C@@H]3O[C@H]6[C@@H]5O4)CC(=O)C[C@@H]3[C@@H](OC)[C@@H](C[C@H](O)CN)O[C@H]3C[C@H]3O[C@@H](CC[C@@H]1O2)C[C@@H](C)C3=C

>  <resultValue>
> 100 µM

$$$$
>  <compound>
CNC(=O)CCCNC(=O)CCCC(=O)N(C)C

>  <resultValue>
> 100 µM

$$$$
>  <compound>
CNC(=O)c1nn(C)c2c1C(C)(C)Cc1cnc(Nc3ccc(N4CCN(C)CC4)cc3)nc1-2

>  <resultValue>
> 10 µM

$$$$
>  <compound>
O=C(O)[C@H](c1ccccc1)[C@@H](C(=O)O)c1ccccc1

>  <resultValue>
> 100 µM

$$$$
>  <compound>
c1ccc2[nH]c(-c3ccc(Nc4nc(N5CCCCC5)nc(N5CCOCC5)n4)cc3)nc2c1

>  <resultValue>
9.54 µM

$$$$
>  <compound>
C=CC(OCC)(OCC)OCC

>  <resultValue>
> 100 µM

$$$$
>  <compound>
Cc1c(C(=O)O)oc2ccc([N+](=O)[O-])cc12

>  <resultValue>
> 100 µM

$$$$
>  <compound>
COC(=O)C1(C)Cc2cc(OC(C)=O)c(OC(C)=O)cc2N1 (centres undefined)

>  <resultValue>
51.6 µM

$$$$
>  <compound>
COc1ccc(C2c3cc4c(cc3OC(N3CCOCC3)C2C)OCO4)c(OC)c1OC (centres undefined)

>  <resultValue>
30.8 µM

$$$$

###

# Test system: MCF7 breast
# experiment: NCI tumour cell line growth inhibition, 48 h
endpoint: TGI

>  <compound>
Cc1cc(I)cc(CN(C)CCCN2CCCC2)c1O

>  <resultValue>
29.5 µM

$$$$
>  <compound>
COc1ccc(C2c3cc4c(cc3OC(N3CCOCC3)C2C)OCO4)c(OC)c1OC (stereo not drawn)

>  <resultValue>
80.2 µM

$$$$
>  <compound>
CC(C)(C)c1cc(C=C(C#N)C#N)cc(C(C)(C)C)c1O

>  <resultValue>
41 µM

$$$$
>  <compound>
CCCCCCCCCCCCCCCC[N+]1(C)CCOCC1

>  <resultValue>
13.2 µM

$$$$
>  <compound>
CN(C)C(=O)O[C@H]1CN[C@H](C#Cc2cc3ncnc(Nc4ccc(OCc5cccc(F)c5)c(Cl)c4)c3s2)C1

>  <resultValue>
> 25 µM

$$$$
>  <compound>
O=C(O)c1ccccc1/C=N/N=C1c2ccccc2-c2ccccc21

>  <resultValue>
> 100 µM

$$$$
>  <compound>
CO[C@@H]1O[C@H](C(=O)c2ccccc2)[C@H]2OC(C)(C)O[C@@H]12

>  <resultValue>
> 100 µM

$$$$
>  <compound>
CC(C)(C)OC(=O)NCCCCCCCn1c2c(c3ccccc3c1=O)C(=O)c1ccccc1-2

>  <resultValue>
> 100 µM

$$$$
>  <compound>
CC1(C)[C@H]2CC[C@@]13C(=O)N1C(=O)O[C@@H]([C@H]1Cl)C(Cl)(COCc1ccccc1)C(=O)OCCO[C@H]3C2 (stereo partly drawn)

>  <resultValue>
> 100 µM

$$$$
>  <compound>
CCOC(=O)c1cn2c(n1)sc1cc(Cl)cc(Cl)c12

>  <resultValue>
> 100 µM

$$$$
>  <compound>
COc1ccc(C(=O)c2ccc([As]=O)cc2)cc1 (stereo not drawn)

>  <resultValue>
0.136 µM

$$$$
>  <compound>
O=C1CSC2=NC3=C(COC/C3=C\c3ccc(Br)cc3)C(c3ccc(Br)cc3)N12 (stereo not drawn)

>  <resultValue>
> 100 µM

$$$$
>  <compound>
CN(C)CCNC(=O)c1cccc2nc(-c3ccccc3)oc12

>  <resultValue>
28.2 µM

$$$$
>  <compound>
COc1cnc2c(c1)C(=O)c1c-2n(CCCN2CCN(C)CC2)c(=O)c2cc([N+](=O)[O-])ccc12

>  <resultValue>
1.2 µM

$$$$
>  <compound>
O=c1[nH]nc(Cc2ccccc2)n1/N=C/c1ccncc1

>  <resultValue>
> 100 µM

$$$$
>  <compound>
O=c1c(F)cn(Cc2ccccc2CCl)c(=O)n1Cc1ccccc1CCl

>  <resultValue>
6.11 µM

$$$$
>  <compound>
COc1ccc(-c2cc(-c3ccccc3)[nH]c(=S)c2C#N)cc1

>  <resultValue>
> 100 µM

$$$$
>  <compound>
O=c1[nH]c(=O)n(C2CC(O)C(CO)O2)cc1OCc1ccccc1 (stereo not drawn)

>  <resultValue>
> 100 µM

$$$$
>  <compound>
CCON1CC(C(=O)OC)=C(O)C1=O

>  <resultValue>
> 100 µM

$$$$
>  <compound>
O=C1c2ccccc2NC(=S)[C@@H]2CCCN12

>  <resultValue>
> 100 µM

$$$$
>  <compound>
COc1ccc(CC2COc3cc(O)cc(O)c3C2=O)cc1O (stereo not drawn)

>  <resultValue>
> 100 µM

$$$$
>  <compound>
CCOC(=O)c1nnsc1NN

>  <resultValue>
> 100 µM

$$$$
>  <compound>
C=Cc1ccccc1C1(O)C=CC(OC)(OC)C=C1

>  <resultValue>
13.3 µM

$$$$

###

# Test system: SF-295 CNS
# experiment: NCI tumour cell line growth inhibition, 48 h
// TGI lookup, one value per entry

>  <compound>
CN1CCN(c2cc3nsnc3c3nsnc23)CC1

>  <TGI>
> 10 µM

$$$$
>  <compound>
O=C(Nc1noc(-c2ccccc2)n1)c1ccccc1CNc1noc(-c2ccccc2)n1

>  <TGI>
> 100 µM

$$$$
>  <compound>
C/C(=N/NC(=O)C[N+](C)(C)C)C(CN(C)C)C(=O)Nc1ccccc1 (stereo unspecified)

>  <TGI>
> 100 µM

$$$$
>  <compound>
N#Cc1nc(NC(=O)c2ccccc2C(=O)O)c(C#N)[nH]1

>  <TGI>
> 100 µM

$$$$
>  <compound>
O=S(=O)(NCCCNc1nccc(-c2c(-c3ccc(F)cc3)nc3sccn23)n1)c1ccc2ccccc2c1

>  <TGI>
> 100 µM

$$$$
>  <compound>
O=c1oc2ccccc2[n+]([O-])c1-c1ccccc1

>  <TGI>
> 100 µM

$$$$
>  <compound>
O=C1OCC2=C1C(c1ccccc1)c1cc3c(cc1N2CCO)OCO3 (stereo unspecified)

>  <TGI>
3.53 µM

$$$$
>  <compound>
CNC(=O)c1nn(C)c2c1C(C)(C)Cc1cnc(Nc3ccc(N4CCN(C)CC4)cc3)nc1-2

>  <TGI>
> 10 µM

$$$$
>  <compound>
O=C(N/N=C/c1ccccc1O)c1ccccc1

>  <TGI>
52.1 µM

$$$$
>  <compound>
O=c1cc(N2CCCC2)[nH]c(=O)n1-c1ccccc1

>  <TGI>
> 100 µM

$$$$
>  <compound>
CN(C)C(=S)/N=c1\ssc(=S)n1Cc1ccncc1

>  <TGI>
83.8 µM

$$$$
>  <compound>
COc1ccc(C2c3cc4c(cc3OC(N3CCOCC3)C2C)OCO4)c(OC)c1OC (stereo unspecified)

>  <TGI>
43 µM

$$$$
>  <compound>
COC(=O)/C(C#N)=C(/NCCN)Nc1ccccc1

>  <TGI>
> 100 µM

$$$$
>  <compound>
CCOC(=O)NC(=O)c1cn(CCN2CCN(C(=O)CCCCCCCCCCC(=O)N3CCN(CCn4cc(C(=O)NC(=O)OCC)c(=O)[nH]c4=O)CC3)CC2)c(=O)[nH]c1=O

>  <TGI>
> 100 µM

$$$$
>  <compound>
Cc1cc(N(CCC#N)CCC#N)ccc1/C=C(\NC(=O)/C=C/c1ccccc1)C(=O)NN

>  <TGI>
> 95.6 µM

$$$$
>  <compound>
[O-]/[N+](=C\c1ccccc1OC(=S)S)c1ccc(Cl)cc1

>  <TGI>
> 100 µM

$$$$
>  <compound>
CCCCCCCCCCCCCCCC[N+]1(C)CCOCC1

>  <TGI>
6.29 µM

$$$$
>  <compound>
CCCCn1c(-c2ccc(C(=O)O/N=C(\N)c3ccc4c(c3)OCO4)cc2)nc(-c2ccccc2)c1-c1ccccc1

>  <TGI>
4.38 µM

$$$$
>  <compound>
CO[C@@H]1O[C@H](C(=O)c2ccccc2)[C@H]2OC(C)(C)O[C@@H]12

>  <TGI>
> 100 µM

$$$$
>  <compound>
CC12CCCC3(CC(=O)C(C)(C)C3C(=O)C1)C2 (stereo unspecified)

>  <TGI>
> 100 µM

$$$$
>  <compound>
Cn1cc(C2=C(c3cn(C4CCN(Cc5ccccn5)CC4)c4ccccc34)C(=O)NC2=O)c2ccccc21

>  <TGI>
> 26.1 µM

$$$$

From: PubChem BioAssay (NCI)
